# assay_info: Solubility in PBS
# Format: physicochemical
assay_endpoint: Solubility (µM)
// note: answer is a bare numeric in µM

Please review the entries below; each comes with its answer.
{"columns": ["compound", "Solubility (µM)"],
 "data": [
  ["CC(=O)N1CCC[C@]12CC=CCCCC1(CCCC=CCCCCCC[C@@](C)(C(=O)N[C@@H](Cc3ccccc3)C(=O)N[C@@H](Cc3csc4ccccc34)C(=O)N[C@@H](CCC(N)=O)C(N)=O)NC(=O)[C@H](CCC(N)=O)NC(=O)[C@H](Cc3ccccc3)NC(=O)[C@H](C)NC(=O)[C@H](C)NC(=O)[C@H](CCC(=O)O)NC(=O)[C@H](CCO)NC1=O)NC(=O)[C@H](C)NC(=O)[C@H](CC(=O)O)NC2=O (some centres unmarked) [I-498]", 42],
  ["CC(=O)N1CCC[C@]12CC=CCCCC1(CCCC=CCCCOC(=O)N3CC[C@@](C(=O)N[C@@H](Cc4ccccc4)C(=O)N[C@@H](Cc4csc5ccccc45)C(=O)N[C@@H](CO)C(N)=O)(C3)NC(=O)[C@H]([C@@H](C)O)NC(=O)[C@H](Cc3ccccc3)NC(=O)[C@H](CC(C)C)NC(=O)[C@H](C)NC(=O)[C@H]([C@@H](C)O)NC(=O)[C@H](CC(=O)O)NC1=O)NC(=O)[C@H](CC(C)(C)C)NC(=O)[C@H](CC(=O)O)NC2=O (some centres unmarked)", 10],
  ["CC[C@H](C)[C@@H]1NC(=O)[C@H](CC(=O)O)NC(=O)[C@]2(CC=CCCCC3(CCCC=CCCCCCC[C@@](C)(C(=O)N[C@@H](Cc4ccsc4)C(=O)N[C@@H](Cc4csc5ccccc45)C(=O)N[C@@H](CCC(N)=O)C(N)=O)NC(=O)[C@H](CC(N)=O)NC(=O)[C@H](Cc4ccccc4)NC(=O)[C@H](C)NC(=O)[C@H](C)NC(=O)[C@H](CN(CC(=O)O)CC(F)(F)F)NC(=O)[C@H](CC(=O)O)NC3=O)NC1=O)CCCN2C(C)=O (some centres unmarked)", 46],
  ["CC(=O)N1CCC[C@]12CC=CCCCC1(CCCC=CCCCOC(=O)N3CC[C@@](C(=O)N[C@@H](Cc4ccccc4)C(=O)N[C@@H](Cc4csc5ccccc45)C(=O)N[C@@H](CCC(N)=O)C(N)=O)(C3)NC(=O)[C@H](CC(C)C)NC(=O)[C@H](Cc3ccccc3)NC(=O)[C@H](C)NC(=O)[C@H](CCCCNC(C)C)NC(=O)[C@H]([C@@H](C)O)NC(=O)[C@H](CC(=O)O)NC1=O)NC(=O)[C@H](CC(C)(C)C)NC(=O)[C@H](CC(N)=O)NC2=O (some centres unmarked) [I-1288]", 10]
]}

// moving on: another record for Solubility
(Q) Item CC(=O)N1CCC[C@]12CC=CCCCC1(CCCC=CCCCOC(=O)N3CC[C@@](C(=O)N[C@@H](Cc4ccccc4Cl)C(=O)N[C@@H](Cc4csc5ccccc45)C(=O)N[C@H](CO)[C@@H](C)O)(C3)NC(=O)[C@H]([C@@H](C)O)NC(=O)[C@H](Cc3ccccc3)NC(=O)[C@H](C)NC(=O)[C@H](C)NC(=O)[C@H]([C@@H](C)O)NC(=O)[C@H](CC(=O)O)NC1=O)NC(=O)[C@H](CC(C)(C)C)NC(=O)[C@H](CC(=O)O)NC2=O (some centres unmarked) has what recorded Solubility?
(A) 10

---

# assayed_system: full-length beta-Catenin (Uniprot ID P35222) (Homo sapiens, UniProt P35222)
# Construct: 10 nM full-length beta-Catenin (Uniprot ID P35222)
# assay_info: Fluorescence polarization IC50 (beta-catenin / 5FAM-TCF4 10-53 competition)
# Type: binding
# experimental_context: read-out: beta-Catenin FP IC50
assay_endpoint: IC50 (nM)
// note: answer is a bare numeric in nM

(Q) Item CC(=O)N1CCC[C@]12CC=CCCCC1(CCCC=CCCCOC(=O)N3CC[C@@](C(=O)N[C@@H](Cc4ccccc4C(F)(F)F)C(=O)N[C@@H](Cc4csc5ccccc45)C(=O)N[C@@H](CCC(N)=O)C(N)=O)(C3)NC(=O)[C@H](CC(N)=O)NC(=O)[C@H](Cc3ccccc3)NC(=O)[C@H](C)NC(=O)[C@H](C)NC(=O)[C@H](CN(CC(=O)O)CC(F)(F)F)NC(=O)[C@H](CC(=O)O)NC1=O)NC(=O)[C@H](CC(C)(C)C)NC(=O)[C@H](CC(=O)O)NC2=O (stereo partly shown) [I-928] has what recorded IC50?
(A) 21

---

# assayed_system: full-length beta-Catenin (Uniprot ID P35222) (Homo sapiens, UniProt P35222)
# Construct: 10 nM full-length beta-Catenin (Uniprot ID P35222)
# Sequence (P35222 1-781): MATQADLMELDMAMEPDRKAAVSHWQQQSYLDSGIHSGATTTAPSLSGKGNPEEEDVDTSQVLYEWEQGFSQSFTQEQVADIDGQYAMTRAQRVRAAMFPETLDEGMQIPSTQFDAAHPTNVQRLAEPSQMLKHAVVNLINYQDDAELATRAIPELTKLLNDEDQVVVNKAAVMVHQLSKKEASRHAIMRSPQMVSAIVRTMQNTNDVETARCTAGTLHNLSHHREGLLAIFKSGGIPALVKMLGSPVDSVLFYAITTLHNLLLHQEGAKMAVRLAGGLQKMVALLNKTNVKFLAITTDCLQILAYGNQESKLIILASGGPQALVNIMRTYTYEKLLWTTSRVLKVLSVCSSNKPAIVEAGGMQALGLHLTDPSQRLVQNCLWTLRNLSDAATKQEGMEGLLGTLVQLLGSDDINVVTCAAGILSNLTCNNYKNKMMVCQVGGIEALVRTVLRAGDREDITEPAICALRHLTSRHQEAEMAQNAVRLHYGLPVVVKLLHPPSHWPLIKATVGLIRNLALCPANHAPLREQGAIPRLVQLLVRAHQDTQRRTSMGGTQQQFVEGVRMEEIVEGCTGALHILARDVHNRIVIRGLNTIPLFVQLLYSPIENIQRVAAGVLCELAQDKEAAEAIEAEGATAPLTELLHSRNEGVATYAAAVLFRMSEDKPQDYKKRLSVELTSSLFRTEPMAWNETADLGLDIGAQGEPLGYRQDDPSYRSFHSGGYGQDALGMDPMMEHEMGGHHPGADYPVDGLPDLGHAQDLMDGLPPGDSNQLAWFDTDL
# assay_info: Fluorescence polarization IC50 (beta-catenin / 5FAM-TCF4 10-53 competition)
# Format: binding
# experimental_context: beta-Catenin FP IC50, fluorescence polarization
assay_endpoint: pIC50
Reminder that pIC50 means the negative base-10 logarithm of the concentration expressed in mol/L.

(Q) Item CC(=O)N1CCC[C@]12CC=CCCCC1(CCCC=CCCCOC(=O)N3CC[C@@](C(=O)N[C@@H](Cc4ccccc4Cl)C(=O)N[C@@H](Cc4csc5ccccc45)C(=O)N[C@@H](CO)C(N)=O)(C3)NC(=O)[C@H]([C@@H](C)O)NC(=O)[C@H](Cc3ccccc3)NC(=O)[C@H](CC(C)C)NC(=O)[C@H](CC(C)C)NC(=O)[C@H](CC(=O)O)NC(=O)[C@H](CC(=O)O)NC1=O)NC(=O)[C@H](Cc1ccccc1)NC(=O)[C@H](CC(=O)O)NC2=O (stereo partly shown) has what recorded pIC50?
(A) 6.77

---

Below: a set of entries, each annotated with reported IC50.
# assayed_system: beta-catenin/TCF4 engagement (Homo sapiens)
# Construct: expressed in transfected cells; host or cells: HEK293
# assay_info: Nano-BRET target engagement assay (B-cat-Halo & TCF4-Luc in HEK293 cells)
# Assay type: cell-based
# experimental_context: read-out: NanoBRET Abs IC50
// note: answer is a bare numeric in µM

Please review the entries below; each comes with its answer.
{"columns": ["compound", "assay_endpoint", "measurement_units", "result"],
 "data": [
  ["CC(=O)N1CCC[C@]12CC=CCCCC1(CCCC=CCCCOC(=O)N3CC[C@@](C(=O)N[C@@H](CC4CCC4)C(=O)N[C@@H](Cc4csc5ccccc45)C(=O)N[C@@H](CO)C(N)=O)(C3)NC(=O)[C@H](CC(C)C)NC(=O)[C@H](Cc3ccccc3)NC(=O)[C@H](C)NC(=O)[C@H](C)NC(=O)[C@H](Cc3cccc(C(=O)O)c3)NC(=O)[C@H](CC(=O)O)NC1=O)NC(=O)[C@H](CC(C)(C)C)NC(=O)[C@H](CC(=O)O)NC2=O (stereo partly drawn)", "IC50", "µM", 10.9],
  ["CC(=O)N1CCC[C@]12CC=CCCCC1(CCCC=CCCCOC(=O)N3CC[C@@](C(=O)N[C@@H](Cc4ccsc4)C(=O)N[C@@H](Cc4csc5ccccc45)C(=O)N[C@@H](CCC(N)=O)C(N)=O)(C3)NC(=O)[C@H](CC(C)C)NC(=O)[C@H](Cc3ccccc3)NC(=O)[C@H](C)NC(=O)[C@H](C)NC(=O)[C@H](Cn3cc(-c4ccccc4C(=O)O)nn3)NC(=O)[C@H](CC(=O)O)NC1=O)NC(=O)[C@H](CC(C)(C)C)NC(=O)[C@H](CC(=O)O)NC2=O (stereo partly drawn)", "IC50", "µM", 16.4],
  ["CC(=O)N[C@]1(C)CCCC=CCCCC2(CCCC=CCCCOC(=O)N3CC[C@@](C(=O)N[C@@H](Cc4ccccc4C(F)(F)F)C(=O)N[C@@H](Cc4csc5ccccc45)C(=O)N[C@@H](CCC(N)=O)C(N)=O)(C3)NC(=O)[C@H](CC(C)C)NC(=O)[C@H](Cc3ccccc3)NC(=O)[C@H](C)NC(=O)[C@H](C)NC(=O)[C@H](Cc3cccc(C(=O)O)c3)NC(=O)[C@H](CC(=O)O)NC2=O)NC(=O)[C@H](CC(C)(C)C)NC(=O)[C@H](CC(=O)O)NC1=O (stereo partly drawn)", "IC50", "µM", 21],
  ["CC(=O)N1CCC[C@]12CC=CCCCC1(CCCC=CCCCOC(=O)N3CC[C@@](C(=O)N[C@@H](Cc4ccsc4)C(=O)N[C@@H](Cc4csc5ccccc45)C(=O)N[C@@H](CCC(N)=O)C(N)=O)(C3)NC(=O)[C@H](CC(C)C)NC(=O)[C@H](Cc3ccccc3)NC(=O)[C@H](C)NC(=O)[C@H](C)NC(=O)[C@H](CCn3cc(CCC(=O)O)nn3)NC(=O)[C@H](CC(=O)O)NC1=O)NC(=O)[C@H](CC(C)(C)C)NC(=O)[C@H](CC(=O)O)NC2=O (stereo partly drawn)", "IC50", "µM", 14.1],
  ["CC(=O)N1CCC[C@]12CC=CCCCC1(CCCC=CCCCOC(=O)N3CC[C@@](C(=O)N[C@@H](Cc4ccccc4Cl)C(=O)N[C@@H](Cc4csc5ccccc45)C(=O)N[C@@H](CC(N)=O)C(=O)N[C@@H](C)C(=O)N[C@@H](C)C(=O)N[C@H](C)C(N)=O)(C3)NC(=O)[C@H](CC(C)C)NC(=O)[C@H](Cc3ccccc3)NC(=O)[C@H](C)NC(=O)[C@H](C)NC(=O)[C@H](Cc3cccc(C(=O)O)c3)NC(=O)[C@H](CC(=O)O)NC1=O)NC(=O)[C@H](CC(C)(C)C)NC(=O)[C@H](CC(=O)O)NC2=O (stereo partly drawn)", "IC50", "µM", 2.3]
]}

(Q) Item CC(=O)N1CCC[C@]12CC=CCCCC1(CCCC=CCCCOC(=O)N3CC[C@@](C(=O)N[C@@H](Cc4ccccc4Cl)C(=O)N[C@@H](Cc4csc5ccccc45)C(=O)N[C@@H](CO)C(N)=O)(C3)NC(=O)[C@H](C)NC(=O)[C@H](Cc3ccccc3)NC(=O)[C@H](C)NC(=O)[C@H](C)NC(=O)[C@H](Cc3cccc(C(=O)O)c3)NC(=O)[C@H](CC(=O)O)NC1=O)NC(=O)[C@H](CC(C)(C)C)NC(=O)[C@H](CC(=O)O)NC2=O (stereo partly drawn) has what recorded IC50?
(A) 8.8

(Q) Now give it for CC(=O)N1CCC[C@]12CC=CCCCC1(CCCC=CCCCOC(=O)N3CC[C@@](C(=O)N[C@@H](Cc4ccsc4)C(=O)N[C@@H](Cc4csc5ccccc45)C(=O)N[C@@H](CCC(N)=O)C(N)=O)(C3)NC(=O)[C@H](CC(C)C)NC(=O)[C@H](Cc3ccccc3)NC(=O)[C@H](C)NC(=O)[C@H](C)NC(=O)[C@H](Cn3cc(CC(C)(C)C(=O)O)nn3)NC(=O)[C@H](CC(=O)O)NC1=O)NC(=O)[C@H](CC(C)(C)C)NC(=O)[C@H](CC(=O)O)NC2=O (stereo partly drawn) too.
(A) 3.7

(Q) Now give it for CC(=O)N1CCC[C@]12CC=CCCCC1(CCCC=CCCCOC(=O)N3CC[C@@](C(=O)N[C@@H](Cc4ccsc4)C(=O)N[C@@H](Cc4csc5ccccc45)C(=O)N[C@@H](CCC(N)=O)C(N)=O)(C3)NC(=O)[C@H](CC(C)C)NC(=O)[C@H](Cc3cccc(C(=O)O)c3)NC(=O)[C@H](C)NC(=O)[C@H](C)NC(=O)[C@H](Cc3c[nH]cn3)NC(=O)[C@H](CC(=O)O)NC1=O)NC(=O)[C@H](CC(C)(C)C)NC(=O)[C@H](CC(=O)O)NC2=O (stereo partly drawn) [I-2123] too.
(A) 26.9

(Q) Now give it for CC(=O)N1CCC[C@]12CC=CCCCC1(CCCC=CCCCOC(=O)N3CC[C@@](C(=O)N[C@@H](Cc4ccsc4)C(=O)N[C@@H](Cc4csc5ccccc45)C(=O)N[C@@H](CCC(N)=O)C(N)=O)(C3)NC(=O)[C@H](CCC(=O)N3CC[C@@H](N(C)C)C3)NC(=O)[C@H](Cc3ccccc3)NC(=O)[C@H](C)NC(=O)[C@H](C)NC(=O)[C@H](CN(CC(=O)O)CC(F)(F)F)NC(=O)[C@H](CC(=O)O)NC1=O)NC(=O)[C@H](CC(C)(C)C)NC(=O)[C@H](CC(=O)O)NC2=O (stereo partly drawn) too.
(A) 20.7
